Origin of values: ChEMBL document CHEMBL1932980

biological target: UniProtKB P29274; assay: Displacement of [3H]ZM241385 from recombinant human A2A adenosine receptor expressed in CHO cells at 10 uM after 60 mins by scintillation counting; type: cell-based
Sequence (P29274 whole entry): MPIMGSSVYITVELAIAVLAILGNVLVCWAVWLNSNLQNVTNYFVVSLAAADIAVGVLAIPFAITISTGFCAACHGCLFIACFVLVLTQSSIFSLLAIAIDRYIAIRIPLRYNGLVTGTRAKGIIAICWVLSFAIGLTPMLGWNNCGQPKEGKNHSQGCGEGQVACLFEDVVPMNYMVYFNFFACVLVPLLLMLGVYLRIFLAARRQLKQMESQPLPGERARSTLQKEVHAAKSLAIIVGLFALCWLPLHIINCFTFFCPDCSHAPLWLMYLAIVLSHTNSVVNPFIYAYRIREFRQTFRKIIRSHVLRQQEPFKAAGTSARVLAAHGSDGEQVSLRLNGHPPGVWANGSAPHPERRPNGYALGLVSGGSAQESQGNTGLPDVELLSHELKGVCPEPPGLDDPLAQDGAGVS
MEASURE_NAME: inhibition (%)

ITEM_SMILES: Nc1scc(CN2CCN(c3cccnc3)CC2)c1C(=O)c1ccc(Cl)cc1
ASSAYED_SYSTEM: UniProtKB P29274
OBSERVED_MEASUREMENT: 0

ITEM_SMILES: Nc1scc(CN2CCN(c3ccc([N+](=O)[O-])cc3)CC2)c1C(=O)c1ccc(Cl)cc1
ASSAYED_SYSTEM: UniProtKB P29274
OBSERVED_MEASUREMENT: 1

ITEM_SMILES: Nc1scc(CN2CCN(c3ccccc3Cl)CC2)c1C(=O)c1ccc(Cl)cc1
ASSAYED_SYSTEM: UniProtKB P29274
OBSERVED_MEASUREMENT: 1

ITEM_SMILES: Nc1scc(CN2CCN(c3ccc(F)cc3Cl)CC2)c1C(=O)c1ccc(Cl)cc1
ASSAYED_SYSTEM: UniProtKB P29274
OBSERVED_MEASUREMENT: 0

ITEM_SMILES: Nc1scc(CN2CCN(c3cc(F)cc(F)c3)CC2)c1C(=O)c1ccc(Cl)cc1
ASSAYED_SYSTEM: UniProtKB P29274
OBSERVED_MEASUREMENT: 0

ITEM_SMILES: Nc1scc(CN2CCN(c3cccc(Cl)c3Cl)CC2)c1C(=O)c1ccc(Cl)cc1
ASSAYED_SYSTEM: UniProtKB P29274
OBSERVED_MEASUREMENT: 1

ITEM_SMILES: Nc1scc(CN2CCN(c3ccc(Cl)cc3Cl)CC2)c1C(=O)c1ccc(Cl)cc1
ASSAYED_SYSTEM: UniProtKB P29274
OBSERVED_MEASUREMENT: 0

ITEM_SMILES: Nc1scc(CN2CCN(C3CCCCCC3)CC2)c1C(=O)c1ccc(Cl)cc1
ASSAYED_SYSTEM: UniProtKB P29274
OBSERVED_MEASUREMENT: 0

ITEM_SMILES: Nc1scc(CN2CCN(c3cc(Cl)ccc3Cl)CC2)c1C(=O)c1ccc(Cl)cc1
ASSAYED_SYSTEM: UniProtKB P29274
OBSERVED_MEASUREMENT: 0

ITEM_SMILES: Nc1scc(CN2CCN(c3cccc4ccccc34)CC2)c1C(=O)c1ccc(Cl)cc1
ASSAYED_SYSTEM: UniProtKB P29274
OBSERVED_MEASUREMENT: 0

----------
target: Adenosine receptor A1 (Homo sapiens); experiment: Allosteric enhancer activity at recombinant human A1 adenosine receptor expressed in CHO cells assessed as change in forskolin-induced cAMP production at 10 uM after 6 mins by radioimmunoassay; type: functional, cell-based

ITEM_SMILES: Nc1scc(CN2CCN(c3ccc(F)c(F)c3)CC2)c1C(=O)c1ccc(Cl)cc1
Activity: -87%

ITEM_SMILES: Nc1scc(CN2CCN(c3ccc(Cl)c(C(F)(F)F)c3)CC2)c1C(=O)c1ccc(Cl)cc1
Activity: -60%

ITEM_SMILES: Nc1scc(CN2CCN(c3cccc4ccccc34)CC2)c1C(=O)c1ccc(Cl)cc1
Activity: -21%

ITEM_SMILES: Nc1scc(CN2CCN(c3cc(F)cc(F)c3)CC2)c1C(=O)c1ccc(Cl)cc1
Activity: -79%

ITEM_SMILES: Nc1scc(CN2CCC(c3ccc(Cl)cc3)CC2)c1C(=O)c1ccc(Cl)cc1
Activity: -61%

ITEM_SMILES: Nc1scc(CN2CCN(c3ccc(F)cc3Cl)CC2)c1C(=O)c1ccc(Cl)cc1
Activity: -70%

ITEM_SMILES: Nc1scc(CN2CCN(c3cccc(F)c3)CC2)c1C(=O)c1cccc(C(F)(F)F)c1
Activity: -62%

ITEM_SMILES: Nc1scc(CN2CCN(c3ccc([N+](=O)[O-])cc3)CC2)c1C(=O)c1ccc(Cl)cc1
Activity: -17%

ITEM_SMILES: Nc1scc(CN2CCN(c3c(F)cccc3F)CC2)c1C(=O)c1cccc(C(F)(F)F)c1
Activity: 4%

----------
biological target: Adenosine receptor A1 (Homo sapiens) (UniProt P30542); assay: Binding affinity to recombinant human A1 adenosine receptor allosteric site expressed in CHO cells assessed as [3H]CCPA Bmax shift at 10 uM after 90 mins relative to control; type: cell-based
Sequence (P30542 whole entry): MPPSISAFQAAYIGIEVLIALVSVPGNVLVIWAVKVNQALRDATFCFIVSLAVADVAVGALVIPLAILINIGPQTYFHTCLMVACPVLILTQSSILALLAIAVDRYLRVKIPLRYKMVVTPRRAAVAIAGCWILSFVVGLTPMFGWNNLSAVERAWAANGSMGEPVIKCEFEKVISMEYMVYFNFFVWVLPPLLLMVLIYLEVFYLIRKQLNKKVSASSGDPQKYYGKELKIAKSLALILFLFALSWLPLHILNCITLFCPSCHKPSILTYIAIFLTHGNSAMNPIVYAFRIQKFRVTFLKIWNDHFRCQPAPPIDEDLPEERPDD

ITEM_SMILES: Nc1scc(CN2CCN(c3ccc(OC(F)(F)F)cc3)CC2)c1C(=O)c1ccc(Cl)cc1
fold change (FC): 6.8

ITEM_SMILES: Nc1scc(CN2CCN(c3ccc(Cl)cc3F)CC2)c1C(=O)c1ccc(Cl)cc1
fold change (FC): 5.3

ITEM_SMILES: Nc1scc(CN2CCN(c3ccccc3Cl)CC2)c1C(=O)c1ccc(Cl)cc1
fold change (FC): 1.2

ITEM_SMILES: Nc1scc(CN2CCN(c3ccc(C(F)(F)F)cc3)CC2)c1C(=O)c1cccc(C(F)(F)F)c1
fold change (FC): 4.4

ITEM_SMILES: Nc1scc(CN2CCN(c3cc(F)ccc3F)CC2)c1C(=O)c1ccc(Cl)cc1
fold change (FC): 4.7

ITEM_SMILES: Nc1scc(CN2CCC(c3ccc(Cl)cc3)CC2)c1C(=O)c1ccc(Cl)cc1
fold change (FC): 3.9

ITEM_SMILES: Cc1sc(N)c(C(=O)c2cccc(C(F)(F)F)c2)c1C
fold change (FC): 1.3

ITEM_SMILES: Nc1scc(CN2CCN(c3cccc(C(F)(F)F)c3)CC2)c1C(=O)c1ccc(Cl)cc1
fold change (FC): 5.3

ITEM_SMILES: Nc1scc(CN2CCN(c3cccc(Cl)c3)CC2)c1C(=O)c1ccc(Cl)cc1
fold change (FC): 4.4
